System: E. faecalis (CL 4877)
Assay: Zone of inhibition screen, 96 well agar array format
Format: cell-based
Parameters: scale not given here
Details: zone of inhibition relative to 1 mg/ml stock solution of p-chlorobiphenylvancomycin
The molecules listed here are annotated with their zone score, E. faecalis CL 4877.
Note: the reply should be a number with no unit written.

Answered examples (2):
[
  {
    "molecule": "CC1OC(OC2C(Oc3c4cc5cc3Oc3ccc(cc3Cl)C(O)C(NC(=O)C3CCCN3C(=O)C3CCCN3)C(=O)NC(CC(N)=O)C(=O)NC5C(=O)NC3C(=O)NC(C(=O)NC(C(=O)O)c5cc(O)cc(O)c5-c5cc3ccc5O)C(O)c3ccc(c(Cl)c3)O4)OC(CO)C(O)C2O)CC(C)(NCc2ccc(-c3ccc(Cl)cc3)cc2)C1O (stereo not drawn) [Compound 86]",
    "zone score, E. faecalis CL 4877": 2
  },
  {
    "molecule": "C[C@H]1O[C@H](O[C@H]2[C@H](Oc3c4cc5cc3Oc3ccc(cc3Cl)[C@@H](O)[C@@H](NC(=O)[C@@H](N)Cc3ccccc3)C(=O)N[C@@H](CC(N)=O)C(=O)N[C@H]5C(=O)N[C@H]3C(=O)N[C@H](C(=O)N[C@@H](C(=O)O)c5cc(O)cc(O)c5-c5cc3ccc5O)[C@H](O)c3ccc(c(Cl)c3)O4)O[C@H](CO)[C@@H](O)[C@@H]2O)C[C@@](C)(NCc2ccc(-c3ccc(Cl)cc3)cc2)[C@H]1O [Compound 7]",
    "zone score, E. faecalis CL 4877": 2
  }
]

Next molecule, please.
I would be grateful if you could share the reported zone score, E. faecalis CL 4877 for CC1OC(OC2C(Oc3c4cc5cc3Oc3ccc(cc3Cl)C(O)C3NC(=O)C(NC(=O)C5NC(=O)C(CC(N)=O)NC(=O)C(NC(=O)C5CC(O)CN5)C(O)c5ccc(c(Cl)c5)O4)c4ccc(O)c(c4)-c4c(O)cc(O)cc4C(C(=O)O)NC3=O)OC(CO)C(O)C2O)CC(C)(NCc2ccc(-c3ccc(Cl)cc3)cc2)C1O (stereo not drawn) [Compound 72] . 2

----------
Test system: E. faecium CL 4931
Assay: MIC determination in BHI media, OD600
Type: cell-based
Conditions: BHI + 0.1% casamino acids, 18 hours at 37° C., ≧90% OD600 inhibition
measured_parameter: MIC E. faecium CL 4931 (µg/mL)
The figure you give is taken to be in µg/mL; do not add the unit.

// query MIC E. faecium CL 4931 value for entry CC1OC(OC2C(Oc3c4cc5cc3Oc3ccc(cc3Cl)C(O)C3NC(=O)C(NC(=O)C5NC(=O)C(CC(N)=O)NC(=O)C(NC(=O)C(N)CSC(C)(C)C)C(O)c5ccc(c(Cl)c5)O4)c4ccc(O)c(c4)-c4c(O)cc(O)cc4C(C(=O)O)NC3=O)OC(CO)C(O)C2O)CC(C)(NCc2ccc(-c3ccc(Cl)cc3)cc2)C1O (stereo not shown) [Compound 333] 25

----------
Consider the following compounds and their measured MIC E. faecium CL 4931 readings.
Tested on: E. faecium CL 4931
Assay: MIC determination in BHI media, OD600
Assay type: cell-based
Settings: BHI + 0.1% casamino acids, 18 hours at 37° C., ≧90% OD600 inhibition
Numeric only. Scale: µg/mL

[
  {
    "compound": "CCOCC(NC)C(=O)NC1C(=O)NC(CC(N)=O)C(=O)NC2C(=O)NC3C(=O)NC(C(=O)NC(C(=O)O)c4cc(O)cc(O)c4-c4cc3ccc4O)C(O)c3ccc(c(Cl)c3)Oc3cc2cc(c3OC2OC(CO)C(O)C(O)C2OC2CC(C)(NCc3ccc(-c4ccc(Cl)cc4)cc3)C(O)C(C)O2)Oc2ccc(cc2Cl)C1O (stereo not drawn)",
    "target_system": "E. faecium CL 4931",
    "MIC E. faecium CL 4931 [µg/mL]": 25
  }
]

Field: next compound
Which value of MIC E. faecium CL 4931 has been reported for C[C@H]1O[C@H](O[C@H]2[C@H](Oc3c4cc5cc3Oc3ccc(cc3Cl)[C@@H](O)[C@@H](NC(=O)[C@@H]3CC(OC(C)(C)C)CN3)C(=O)N[C@@H](CC(N)=O)C(=O)N[C@H]5C(=O)N[C@H]3C(=O)N[C@H](C(=O)N[C@@H](C(=O)O)c5cc(O)cc(O)c5-c5cc3ccc5O)[C@H](O)c3ccc(c(Cl)c3)O4)O[C@H](CO)[C@@H](O)[C@@H]2O)C[C@@](C)(NCc2ccc(-c3ccc(Cl)cc3)cc2)[C@H]1O (stereo partly drawn) in the records? 25
